Overview of reported IC50 across a group of compounds:
SUBJECT_OF_TEST: human LPA1 (Homo sapiens)
Sequence (Q92633 whole entry): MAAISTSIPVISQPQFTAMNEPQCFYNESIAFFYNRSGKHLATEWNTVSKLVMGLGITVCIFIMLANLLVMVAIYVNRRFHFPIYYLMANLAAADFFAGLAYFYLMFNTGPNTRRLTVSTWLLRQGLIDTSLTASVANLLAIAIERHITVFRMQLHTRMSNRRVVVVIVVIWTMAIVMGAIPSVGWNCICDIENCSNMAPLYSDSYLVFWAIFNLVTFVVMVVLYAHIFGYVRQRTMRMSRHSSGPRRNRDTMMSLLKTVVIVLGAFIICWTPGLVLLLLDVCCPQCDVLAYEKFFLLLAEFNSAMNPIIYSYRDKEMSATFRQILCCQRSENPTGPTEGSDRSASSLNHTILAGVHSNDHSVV
ASSAY: LPA1 functional antagonist assay (calcium flux)
STUDY_CONDITIONS: CHO cells overexpressing human LPA1; inhibition of calcium flux induced by 10 nM LPA; read-out: hLPA1 IC50
READOUT: IC50 (µM)

- Cc1nc(-c2nnn(C)c2COC(=O)N(C)C2CCCC2)ccc1O[C@H]1CCO[C@@H](C(=O)O)C1 [Example 36]: 0.713
- CCCCCN(C)C(=O)OCc1c(-c2ccc(O[C@H]3COC[C@@H](C(=O)O)C3)c(C)n2)nnn1C [Example 31]: 0.00229
- Cc1nc(-c2nnn(C)c2COC(=O)N(C)CC2CCC2)ccc1O[C@@H]1C[C@@H]2C[C@@H]2[C@@H](C(=O)O)C1 (single isomer, unassigned) [Example 6]: 0.562

These measurements were taken from patent US12435057B2.
